target_or_system: adenylyl cyclase-associated protein 1 (CAP1) (Homo sapiens, UniProt Q01518)
Sequence (Q01518 2-475): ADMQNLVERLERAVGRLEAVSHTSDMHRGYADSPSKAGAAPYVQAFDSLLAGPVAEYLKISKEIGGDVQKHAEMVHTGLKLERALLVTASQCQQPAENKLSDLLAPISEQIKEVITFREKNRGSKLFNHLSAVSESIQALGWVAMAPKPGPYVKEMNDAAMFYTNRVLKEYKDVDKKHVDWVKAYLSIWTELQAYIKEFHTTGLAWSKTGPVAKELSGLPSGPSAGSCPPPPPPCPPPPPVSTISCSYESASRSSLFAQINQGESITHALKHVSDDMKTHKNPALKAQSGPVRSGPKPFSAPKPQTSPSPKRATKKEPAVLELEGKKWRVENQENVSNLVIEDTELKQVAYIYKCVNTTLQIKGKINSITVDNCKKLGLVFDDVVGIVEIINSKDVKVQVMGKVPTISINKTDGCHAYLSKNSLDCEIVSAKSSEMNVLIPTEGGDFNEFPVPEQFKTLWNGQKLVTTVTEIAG
reported_metric: pKd
// returns pKd (minus log10 of molar concentration), number only

Ask | So what does the record say about pKd for CC1=C(O)C(=O)C=C2C1=CC=C1[C@@]2(C)CC[C@@]2(C)[C@@H]3C[C@](C)(C(=O)O)CC[C@]3(C)CC[C@]12C ?
Reply | 6.96
